Quick reference for koff among some binders
- experimentalSystem: T1, SARS-CoV2 spike RBD variant strain (SPD-C52Hp, Acro Biosystems, K417N, E484K, N501Y) (SARS-CoV-2, UniProt P0DTC2 319-537)
- T1 construct: domain: RBD
- experimentSummary: BLI (Octet), biotinylated RBD on SA sensor, VHH as analyte, 1:1 fit

binder	koff, s⁻¹
Bacillus subtilis-derived VHH-COVE5 (VHH) VHH: EVQLVESGGGLVQAGGSLRLSCTASDQIFDNYNMAWFRQSPGKEREFVAALSWGDSNTGYADSVKGRFTISRDNAKNTVYLQMNSLKPEDTAVYYCYAVTWLRGDYWGQGTQVTVSS	0.0625
Bacillus subtilis-derived VHH-COVE9 (VHH) VHH: EVQLVESGGGLVQPGGSLRLSCAASGTIFSTNAMSWYRQAPGKQRELVAAITSGGNTNYADSVKGRFTISRDNAKNTVYLQMNSLKPEDTAVYYCNAPGVVTGSYDVRNYWGQGTQVTVSS	0.00159

Values from patent US20230365659A1
